Target: T1, hK1 (human tissue kallikrein 1), recombinant (human, UniProt P06870 25-262)
T1 construct: Expressed in P. pastoris from KLK1 cDNA and purified; enzymatically active; also called KLK1; Recombinant (Pichia) Kallikrein
Experiment: SPR
Value type: Kd (µM)
Report the figure in µM without appending any unit label.

Return Kd for the following binder: M0126-H09 (Fab, V domains shown) VH: EVQLLESGGGLVQPGGSLRLSCAASGFTFSNYTMMWVRQAPGKGLEWVSGIYPSGGQTAYADSVKGRFTISRDNSKNTLYLQMNSLRAEDTAVYYCARGGSWYAFDIWGQGTMVTVSS VL: AQSVLTQDPAVSVALGQTVRFTCQGDSLRNYHPSWYQQKPRQAPVLVMFGRNNRPSGIPDRFSGSTSGGTASLTITATQADDEADYFCSSRDGSGNFLFGGGTKLTVLG
0.023

Give Kd for M0092-B12 (Fab, V domains shown) VH: EVQLLESGGGLVQPGGSLRLSCAASGFTFSQYLMAWVRQAPGKGLEWVSSIYPSGGNTNYADSVKGRFTISRDNSKNTLYLQMNSLRAEDTAVYYCARDRSIVPYSSSWYMPRDYYYGMDVWGQGTTVTVSS VL: DIQMTQSPSSLSASVGDRVTITCRASQGISNYLAWYQQKPGKVPKLLIYAASTLQSGVPSRFSGSGSGTDFTLTISSLQPEDFATYYCQQSYSTPYTFGQGTKLEVRR
0.0121

Report Kd, nothing else, for this binder: M0116-A08 (Fab, V domains shown) VH: EVQLLESGGGLVQPGGSLRLSCAASGFTFSYYMMGWVRQAPGKGLEWVSSIYTSGGYTKYADSVKGRFTISRDNSKNTLYLQMNSLRAEDTAVYYCARASIYYGMDVWGQGTTVTVSS VL: DIQMTQSPGTLSLSPGERATLSCRASQSVSNSYLAWYQQRPGQAPRLLIYGASSRATGIPDRFSGSGSGTEFTLTISRLEPEDFAVYYCQQFGSSTGYTFGQGTKLELKR
0.0883
